- Tested On: T1, hu-M-IL1RAP construct, positions S21-T367 (extracellular domain of the membrane form of human IL1RAP) (human, UniProt Q9NPH3 21-367)
- T1 construct: Biotinylated when captured on the Biacore chip
- T1 sequence: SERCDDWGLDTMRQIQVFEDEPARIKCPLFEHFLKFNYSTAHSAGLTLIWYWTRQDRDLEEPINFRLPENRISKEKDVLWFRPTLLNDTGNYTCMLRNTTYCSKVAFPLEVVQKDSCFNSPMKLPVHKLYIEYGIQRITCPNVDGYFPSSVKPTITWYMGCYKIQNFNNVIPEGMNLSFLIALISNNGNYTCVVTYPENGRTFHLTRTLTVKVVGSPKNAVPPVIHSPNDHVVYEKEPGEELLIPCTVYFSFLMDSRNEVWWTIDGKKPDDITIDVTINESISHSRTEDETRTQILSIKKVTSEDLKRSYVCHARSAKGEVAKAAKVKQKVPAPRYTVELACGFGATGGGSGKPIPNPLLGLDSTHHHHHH
- Method: SPR, Fab analyte, 37 C
A collection of binders and their measured kon
Quick reminder: number only, in M⁻¹ s⁻¹, skip the unit.

Worked set:
- Binder: "K17/H2 Fab (VL-A51Y/W92K, VH-R96D) (Fab, V domains shown, Fab with 8xHis tag) VH: EVQLVESGGGLVQPGGSLRLSCAASGFTFSNYAMSWVRQAPGKGLEWVATVTEGGDYNYYLDDVKGRFTISRDNAKNSLYLQMNSLRAEDTAVYYCARDDWPYFFDYWGQGTLVTVSS VL: DIQMTQSPSSLSASVGDRVTITCRASENIYSNLAWYQQKPGKSPKLLVYGYKNLADGVPSRFSGSGSGTDYTLTISSLQPEDFATYYCQHFKTTPRTFGGGTKVEIK"
  Unit Descriptor: "M⁻¹ s⁻¹"
  kon: "4.15e+06"
- Binder: "K10/H3 Fab (VL-A51Y, VH-V51S) (Fab, V domains shown, Fab with 8xHis tag) VH: EVQLVESGGGLVQPGGSLRLSCAASGFTFSNYAMSWVRQAPGKGLEWVATSTEGGDYNYYLDDVKGRFTISRDNAKNSLYLQMNSLRAEDTAVYYCARDRWPYFFDYWGQGTLVTVSS VL: DIQMTQSPSSLSASVGDRVTITCRASENIYSNLAWYQQKPGKSPKLLVYGYKNLADGVPSRFSGSGSGTDYTLTISSLQPEDFATYYCQHFWTTPRTFGGGTKVEIK"
  Unit Descriptor: "M⁻¹ s⁻¹"
  kon: "5.06e+06"
- Binder: "K13/H2 Fab (VL-A51Y/W92I, VH-R96D) (Fab, V domains shown, Fab with 8xHis tag) VH: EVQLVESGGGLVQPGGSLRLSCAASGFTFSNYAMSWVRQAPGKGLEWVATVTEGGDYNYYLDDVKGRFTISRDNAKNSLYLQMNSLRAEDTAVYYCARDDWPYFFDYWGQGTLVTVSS VL: DIQMTQSPSSLSASVGDRVTITCRASENIYSNLAWYQQKPGKSPKLLVYGYKNLADGVPSRFSGSGSGTDYTLTISSLQPEDFATYYCQHFITTPRTFGGGTKVEIK"
  Unit Descriptor: "M⁻¹ s⁻¹"
  kon: "5.08e+06"
- Binder: "K17/H3 Fab (VL-A51Y/W92K, VH-V51S) (Fab, V domains shown, Fab with 8xHis tag) VH: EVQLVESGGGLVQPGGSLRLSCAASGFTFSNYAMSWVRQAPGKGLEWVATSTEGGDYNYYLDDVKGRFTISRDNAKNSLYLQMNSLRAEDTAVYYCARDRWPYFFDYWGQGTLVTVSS VL: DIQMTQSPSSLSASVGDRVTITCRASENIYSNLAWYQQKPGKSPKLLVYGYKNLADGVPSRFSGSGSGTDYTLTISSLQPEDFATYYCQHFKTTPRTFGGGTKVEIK"
  Unit Descriptor: "M⁻¹ s⁻¹"
  kon: "3.81e+06"

Query: Note down kon recorded for K10/H2 Fab (VL-A51Y, VH-R96D) (Fab, V domains shown, Fab with 8xHis tag) VH: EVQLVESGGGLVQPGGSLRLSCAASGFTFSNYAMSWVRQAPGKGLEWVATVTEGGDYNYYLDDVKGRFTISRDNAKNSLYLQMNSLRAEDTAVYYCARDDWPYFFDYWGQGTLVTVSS VL: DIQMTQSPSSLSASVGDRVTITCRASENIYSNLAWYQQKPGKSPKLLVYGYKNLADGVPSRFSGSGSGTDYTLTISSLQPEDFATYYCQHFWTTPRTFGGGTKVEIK
Response: 5.54e+06

Query: Consider the binder K13/H12 Fab (VL-A51Y/W92I, VH-M34V) (Fab, V domains shown, Fab with 8xHis tag) VH: EVQLVESGGGLVQPGGSLRLSCAASGFTFSNYAVSWVRQAPGKGLEWVATVTEGGDYNYYLDDVKGRFTISRDNAKNSLYLQMNSLRAEDTAVYYCARDRWPYFFDYWGQGTLVTVSS VL: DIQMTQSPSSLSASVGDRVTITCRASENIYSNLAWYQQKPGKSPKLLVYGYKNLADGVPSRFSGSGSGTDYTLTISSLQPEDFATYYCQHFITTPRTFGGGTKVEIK . State its measured kon.
Response: 4.9e+06

Query: Consider the binder K13/H3 Fab (VL-A51Y/W92I, VH-V51S) (Fab, V domains shown, Fab with 8xHis tag) VH: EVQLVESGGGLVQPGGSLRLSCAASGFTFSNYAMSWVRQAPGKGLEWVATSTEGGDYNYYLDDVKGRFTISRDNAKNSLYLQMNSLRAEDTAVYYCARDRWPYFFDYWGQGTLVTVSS VL: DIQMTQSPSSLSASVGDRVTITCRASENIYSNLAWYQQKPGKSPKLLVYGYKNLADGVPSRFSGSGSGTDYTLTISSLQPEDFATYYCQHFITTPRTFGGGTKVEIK and give its recorded kon.
Response: 5.17e+06
